- experiment_description: probe aShh binding to arrayed compounds – biochemical, biotinylated probe, 635/667 nm fluorescence, primary screen (AID 1114);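 further: probe is biotin-labelled aShh protein from a stem cell growth factor screen; measures binding of labelled protein to compounds printed on the slide; score merges feature fluorescence at 667 nm with signal-to-noise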
- particulars: small-molecule microarray, higher = more signal
property_name: composite z-score
Lab note: record just the number, no unit beside it.

These recorded examples may help you get a feel for the data.
Look at this compound and give its reported composite z-score. `COCCOC(=O)N1C(=O)[C@@]2(c3cc(C#CCCO)ccc31)[C@H](c1ccc(OCCO)cc1)N1[C@H](c3ccccc3)[C@H](c3ccccc3)OC(=O)[C@H]1[C@@H]2C(=O)Nc1nc2ccccc2s1`
0.626

Consider the compound shown here: `CC#CCO[Si](C#Cc1ccccc1)(C(C)C)C(C)C` What is its recorded composite z-score?
-0.0769

Fill blank: measured composite z-score of the compound CC1CC/C=C\[C@H]2OC34C=CCN(C(C)C)C(=O)[C@H]3N(CCO)C(=O)[C@@H]4C2C(=O)O1 (some centres undefined) is ____.
0.0062

# context switch: different compound, same composite z-score
Could you tell me which composite z-score is on file for `COc1ccc([Si](C)(C)[C@@H]2[C@@H](CCO)O[C@]3(C(=O)N(Cc4ccccc4)c4ccc(N5C(=O)c6cccc7cccc5c67)cc43)[C@H]2C)cc1` ?
-0.237

---

- tested_on: Dickkopf-related protein 1 (Homo sapiens)
- experiment_description: small molecules binding DKK1 protein – biochemical, small-molecule microarray, 635 nm fluorescence scan, primary screen (AID 1106);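 further: score merges emission near 667 nm with signal to noise over three replicate slides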
- particulars: higher = more signal
property_name: composite z-score

Lab note: need composite z-score for `C=CCNC(=O)[C@@H]1[C@H]2C(=O)O[C@H](c3ccccc3)[C@H](c3ccccc3)N2[C@H](c2ccccc2OCCO)[C@@]12C(=O)Nc1ccc(C#CCCO)cc12` on Dickkopf-related protein 1 (Homo sapiens), anyone have it?
1.49

Continuing:
Query composite z-score on Dickkopf-related protein 1 (Homo sapiens) for CC1CC/C=C\[C@H]2OC34C=CCN(c5ccc6ccccc6c5)C(=O)[C@H]3N(CCCO)C(=O)[C@@H]4C2C(=O)O1 (stereo partly specified)
-2.16

Reported composite z-score for Dickkopf-related protein 1 (Homo sapiens), given `Cc1ccc(S[C@]2(C(=O)NCc3ccccc3)CC(=O)N(C3CCCCC3)[C@@H]2c2ccc(CO)cc2I)cc1` ?
-0.358

API: value(readout= composite z-score, system= Dickkopf-related protein 1 (Homo sapiens), query= `[N-]=[N+]=NCc1ccccc1[C@@H]1OC(c2ccc(OCCCO)cc2)=N[C@]1(CCS(=O)(=O)c1ccccc1)C(=O)O` )
-0.713

What is its composite z-score for Dickkopf-related protein 1 (Homo sapiens)? Entry: `CCCC=C(CCC)[C@@H](NS(=O)(=O)c1ccc(C(F)(F)F)cc1)c1ccccc1`
-0.61

Request body: readout composite z-score, system Dickkopf-related protein 1 (Homo sapiens), query `CCCNC(=O)[C@@]1(C)c2ccccc2C(=O)N(c2ccc(C)cn2)[C@H]1c1ccc(CO)cc1` . Return the value.
-0.126

API: value(readout=composite z-score, system=Dickkopf-related protein 1 (Homo sapiens)) for record `NC(=O)[C@H]1[C@@H]2C(=O)O[C@@H](c3ccccc3)[C@@H](c3ccccc3)N2[C@@H](c2ccc(OCCO)cc2)[C@]12C(=O)Nc1ccc(C#CCCO)cc12`
0.24

Record `CC(C)(C)OC(=O)COc1cccc(C(=O)CCN2CCOCC2)c1` : what is its composite z-score with Dickkopf-related protein 1 (Homo sapiens)?
-0.285

Please tell me: composite z-score of `COc1ccc([Si](C)(C)[C@@H]2[C@@H](CC(=O)N3Cc4ccccc4C[C@H]3CO)O[C@]3(C(=O)N(Cc4ccc(N5C(=O)c6cccc7cccc5c67)cc4)c4ccccc43)[C@H]2C)cc1` , system Dickkopf-related protein 1 (Homo sapiens)?
1.12

Param readout = composite z-score; param system = Dickkopf-related protein 1 (Homo sapiens); param query = COc1cc2c(cc1O)C(C1CC1)N(C)CC2 (stereo unspecified) ; response: value
-0.896

Give the reported composite z-score for O=C(C1N=C(c2ccc(OCCCO)cc2)N(c2ccccc2)O1)N1CCCCC1 (stereo unspecified) (system: Dickkopf-related protein 1 (Homo sapiens)).
0.291

# get_value(readout= composite z-score, system= Dickkopf-related protein 1 (Homo sapiens)) for `COC(=O)[C@@]1(Cc2ccc(F)cc2)[C@H]2c3cc(C(=O)N4CCCC4)n(Cc4ccc(C)c(F)c4F)c3C[C@H]2CN1C(=O)c1ccccc1`
-0.453

For Dickkopf-related protein 1 (Homo sapiens), provide composite z-score of O=C1NC(=O)C2C1C=CC(C(O)c1ccco1)N2Nc1ccc(Cl)cc1Cl (stereo unspecified) please.
-0.0083

Param readout = composite z-score; param system = Dickkopf-related protein 1 (Homo sapiens); param query = `CCOC(=O)C[C@H]1[C@H](OC(=O)c2ccc(C(=O)c3ccccc3)cc2)[C@@H](NC(=O)c2ccc3ccccc3n2)c2cc(OCCCO)ccc2N1C(=O)Cc1ccc(OC)cc1` ; response: value
0.239

Please state recorded composite z-score (tested on Dickkopf-related protein 1 (Homo sapiens)) of `COC(=O)[C@@]1(Cc2ccc(OC)cc2)[C@H]2c3cc(C(=O)N(C)C)n(Cc4ccc(C)o4)c3C[C@H]2CN1C(=O)c1ccccc1`
-0.716

Fill in the recorded composite z-score for this compound, with Dickkopf-related protein 1 (Homo sapiens) as test system: `COC(=O)c1c(CC[C@@H](CO)NC(=O)N[C@@H](C)Cn2cc(-c3ccccn3)nn2)oc(C(C)=O)c1C(=O)OC`
0.28

Give Dickkopf-related protein 1 (Homo sapiens) composite z-score for `C=CCN1Cc2ccccc2[C@@H]2OC(c3ccc(OCCCO)cc3)=N[C@]2(CC=C)C1=O`
1.33

---

Measured z-score of individual entries
- experiment_description: budding yeast growth modifiers under rapamycin – strain BY4716, OD600, 96 h, primary screen (AID 1091); further: test concentration not given here
- particulars: S. cerevisiae BY4716 + rapamycin, higher = more signal, called active from +8 up or from −8 down
Just the number, please.

I'd like to know its z-score. The compound in question is `COc1ccc([Si](C)(C)[C@@H]2[C@@H](CC(=O)N3Cc4ccccc4C[C@H]3CO)O[C@]3(C(=O)N(Cc4ccc(N5C(=O)c6cccc7cccc5c67)cc4)c4ccccc43)[C@H]2C)cc1`
1.39

Dear colleague, I am looking for the recorded z-score of the following compound: `C=C(/C(=C/C[C@H](OC(=O)c1ccncc1)c1ccc(CO)o1)c1cnc2ccccc2c1)C(C)C`
0.433

I'd like to know its z-score. The compound in question is `C#Cc1cc2ccccc2oc1=O`
-1.11

Now turn to the next compound.
Requested read-out: z-score. Entry: CCC1=C2CN(Cc3ccccc3)[C@@H](C(=O)Cc3ccccc3)C2C=CCC1 (some centres undefined)
-0.728

---

Overview of recorded composite z-score for various compounds
- experiment_description: probe aNOTCH3 binding on compound microarray – biochemical, small-molecule microarray, 635/667 nm fluorescence, primary screen (AID 1120);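 further: probe is a biotin-tagged antibody raised against NOTCH3 rather than NOTCH3 protein; score merges spot fluorescence near 667 nm with spot signal to noise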
- particulars: higher = more signal
Output spec: single numeric token, no unit.

Which value of composite z-score has been reported for `COCCOC(=O)N1C(=O)[C@@]2(c3cc(C#CCNC(N)=O)ccc31)[C@H](C(N)=O)[C@H]1C(=O)O[C@H](c3ccccc3)[C@H](c3ccccc3)N1[C@@H]2c1ccccc1OCCO` in the records?
0.133

Continuing:
So what does the record say about composite z-score for `NC(=O)[C@H]1[C@@H]2C(=O)O[C@@H](c3ccccc3)[C@@H](c3ccccc3)N2[C@@H](c2ccc(OCCO)cc2)[C@]12C(=O)Nc1ccc(C#CCCO)cc12` ?
0.0203

Given `COc1ccc(CCNC(=O)[C@@H]2c3ccccc3C(=O)N(C3CCCCC3)[C@H]2c2ccc(CO)cc2)cc1` , state its recorded composite z-score.
-0.119

What value of composite z-score has been recorded for this entry: O=C1C2C=CC(C(O)c3cccc(O)c3)N(Nc3ccc([N+](=O)[O-])cc3)C2C(=O)N1c1ccccc1 (stereo unspecified)
0.0116

Returns the measured composite z-score for the input compound. Input: `COc1ccc([Si](C)(C)[C@H]2[C@H](CC(=O)N3Cc4ccccc4C[C@H]3CO)O[C@@]3(C(=O)N(Cc4ccc(N5CCOC5=O)cc4)c4ccccc43)[C@@H]2C)cc1`
-0.0106

Report composite z-score for `[N-]=[N+]=Nc1ccccc1[C@H]1OC(c2ccc(OCCCO)cc2)=N[C@@]1(Cc1ccccc1)C(=O)NCCN1CCOCC1` please.
0.457

---

# Lookup of reported z-score keyed by entry
- experiment_description: viability profiling in RPMI8226 myeloma cells – cell-based, resazurin fluorescence, basal, 24 h, PK04 Diversity Set, profiling panel (AID 1180);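 further: RPMI8826 multiple myeloma cell line at 5000 cells per well; test concentration not given here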
- particulars: higher = more signal

Solved cases (6 shown):
Entry under review: `CC(C)NC(=O)[C@@]1(c2ccc([N+](=O)[O-])cc2)CC(=O)N(C2CCCCC2)[C@@H]1c1ccc(CO)cc1` . Reported z-score?
0.367

Which z-score is reported for this molecule? CC(C)N1CC=CC23O[C@@H]4C=CCCOC(=O)C4[C@H]2C(=O)N(CCCO)[C@@H]3C1=O (some centres not stated)
-0.114

Recorded z-score of [N-]=[N+]=NCc1ccccc1[C@H]1OC(c2ccc(OCCCO)cc2)=N[C@@]1(Cc1ccccc1N=[N+]=[N-])C(=O)NCC(O)CO (some centres not stated) , please.
-1.06

Requested read-out: z-score. Entry: `COCCOC(=O)N1C(=O)[C@@]2(c3ccccc31)[C@H](c1ccc(O)cc1)N1[C@H](c3ccccc3)[C@H](c3ccccc3)OC(=O)[C@H]1[C@@H]2C(=O)N1CCN(c2ncccn2)CC1`
-0.0522

Look at this molecule and give its reported z-score. `COc1ccc([Si](C)(C)[C@@H]2[C@@H](CCO)O[C@]3(C(=O)N(Cc4cccc(NC(=O)[C@H](C)O)c4)c4ccccc43)[C@H]2C)cc1`
-6.22

Quick check: z-score of `O=C1[C@H]2C=C(I)[C@H](C[C@@H]2OCCOCCO)[C@@]12CO2` ?
-0.244

For the next question, use this molecule.
Recorded z-score for CC1CC/C=C\[C@H]2OC34C=CCN(Cc5ccccc5)C(=O)[C@H]3N(C(CO)C(C)C)C(=O)[C@@H]4C2C(=O)O1 (some centres not stated) , please?
0.775

These measurements were taken from PubChem BioAssay.
